Give logP for every item shown.
Assay: Partition coefficient (logP)
Assay type: physicochemical
Details: octanol/water

Data request, read-out logP, for C[C@H]1[C@H]2Cc3ccc(O)cc3[C@]1(C)CCN2CC1CC1 [CYCLAZOCINE] 0.97

Data request, read-out logP, for C=CCN1CCC2(C)c3cc(O)ccc3CC1C2C (stereo in doubt; form 1) 1.58

Data request, read-out logP, for CC1C2Cc3ccc(O)cc3C1(C)CCN2Cc1ccoc1 (stereo in doubt; form 2) 2

Data request, read-out logP, for CC1C2Cc3ccc(O)cc3C1(C)CCN2Cc1ccco1 (stereo in doubt; form 1) 2.49

----------
Give logP for every item shown.
Experiment: Partition coefficient (logP)
Type: physicochemical
Settings: octanol/water; read-out: logP
Form rule: numeric answer, no unit written next to it.

Data request, read-out logP, for CN1CCC23c4c5cccc4OC2CCCC3C1C5 (stereo not given) 1.35

Data request, read-out logP, for CN1CCC23c4c5ccc(O)c4OC2C(O)CCC3C1C5 (stereo not given) -0.51

Data request, read-out logP, for CN1CCC23c4c5cccc4OC2C(=O)CCC3C1C5 (stereo not given) 0.4

Data request, read-out logP, for CN1CCC23c4c5cccc4OC2C(=O)CCC3(O)C1C5 (stereo not given) -0.23

Data request, read-out logP, for CC1C2Cc3ccc(O)cc3C1(C)CCN2Cc1ccoc1 (stereo in doubt; form 1) 2.25

Data request, read-out logP, for CN1CCC23c4c5cccc4OC2C(O)C=CC3C1C5 (stereo not given) 0.3

Data request, read-out logP, for C=CCN1CCC23c4c5ccc(O)c4OC2C(O)C=CC3C1C5 (stereo not given) 1.22

Data request, read-out logP, for C=CCN1CCC23c4c5cccc4OC2C(O)CCC3C1C5 (stereo not given) 0.87

Data request, read-out logP, for C[C@H]1[C@@H]2Cc3ccc(O)cc3[C@]1(C)CCN2C [METAZOCINE] 0.47

Data request, read-out logP, for C=CCN1CCC23CCCCC2C1Cc1ccc(O)cc13 (stereo not given) 2.14

Data request, read-out logP, for C=CCN1CCC2(C)c3cc(O)ccc3CC1C2C (stereo in doubt; form 2) 1.73

Data request, read-out logP, for COc1ccc2c3c1O[C@H]1[C@@H](O)C=C[C@H]4[C@@H](C2)N(C)CC[C@@]341 [CODEINE] 0.25

Data request, read-out logP, for CC1C2Cc3ccc(O)cc3C1(C)CCN2Cc1ccco1 (stereo in doubt; form 2) 2.68

Data request, read-out logP, for CN1CCC23c4c5ccc(O)c4OC2C(=O)CCC3(O)C1C5 (stereo not given) -0.42

Data request, read-out logP, for CN1CC[C@]23CCCC[C@H]2[C@H]1Cc1ccc(O)cc13 [LEVORPHANOL] 1.03
